test: Pharmacokinetics of Compound II given orally and intravenously to cancer patients (plasma, LC/MS/MS); type: in vivo, human; details: human, plasma, 20 mg/m2; 20 mg/m^2, IV, patients N=3, median

# compound, Tmax
rows = [
    ("C/C(=C\\c1csc(C)n1)C1C[C@@H]2O[C@]2(C)CCC[C@H](C)[C@H](O)[C@@H](C)C(=O)C(C)(C)[C@@H](O)CC(=O)N1 (relative stereo) [Compound II]", "15 min"),
]

* * *

test: Pharmacokinetics of Compound II given orally and intravenously to cancer patients (plasma, LC/MS/MS); format: in vivo, human; settings: human, plasma, 25 mg/m2; 25 mg/m^2, IV, patients N=11, median

# compound, unit of measure, Tmax
records = [
    ("C/C(=C\\c1csc(C)n1)C1C[C@@H]2O[C@]2(C)CCC[C@H](C)[C@H](O)[C@@H](C)C(=O)C(C)(C)[C@@H](O)CC(=O)N1 (relative stereo)", "min", 30),
]

* * *

Assay: Pharmacokinetics of Compound II given orally and intravenously to cancer patients (plasma, LC/MS/MS)
Type: in vivo, human
Conditions: human, plasma, 30 mg/m2; 30 mg/m^2, oral solution, patients N=4, median
Description: Patients with Advanced Malignancies were administered Compound II weekly as a 30-minute infusion (a course=3 intravenous weekly administrations). Patients received doses of 1, 2.5, 5, 10, 20, 25, or 30 mg/m^2. […] Samples were analyzed by adding an internal standard to 0.2 mL of plasma sample, precipitating with acetone, and then extracting the supernatant with 1-chlorobutane. […] The plasma concentration versus time data were analyzed using non-compartmental methods. […]

# compound, Tmax
data = [
    ("C/C(=C\\c1csc(C)n1)C1C[C@@H]2O[C@]2(C)CCC[C@H](C)[C@H](O)[C@@H](C)C(=O)C(C)(C)[C@@H](O)CC(=O)N1 (relative stereo)", "30 min"),
]

* * *

assay: Pharmacokinetics of Compound II given orally and intravenously to cancer patients (plasma, LC/MS/MS); assay type: in vivo, human; details: human, plasma; 30 mg/m^2, IV 30-minute infusion, patients N=4, mean

# compound, Cmax [ng/mL]
data = [
    ("C/C(=C\\c1csc(C)n1)C1C[C@@H]2O[C@]2(C)CCC[C@H](C)[C@H](O)[C@@H](C)C(=O)C(C)(C)[C@@H](O)CC(=O)N1 (relative stereo) [Compound II]", 711),
]

* * *

experiment: Pharmacokinetics of Compound II given orally and intravenously to cancer patients (plasma, LC/MS/MS); assay type: in vivo, human; conditions: human, plasma, 30 mg/m2; 30 mg/m^2, oral solution, patients N=4, mean

# compound, unit of measure, Cmax
rows = [
    ("C/C(=C\\c1csc(C)n1)C1C[C@@H]2O[C@]2(C)CCC[C@H](C)[C@H](O)[C@@H](C)C(=O)C(C)(C)[C@@H](O)CC(=O)N1 (relative stereo) [Compound II]", "ng/mL", 274),
]

* * *

assay: Pharmacokinetics of Compound II given orally and intravenously to cancer patients (plasma, LC/MS/MS); format: in vivo, human; details: human, plasma, 20 mg/m2; 20 mg/m^2, oral solution, patients N=3, mean

# compound, Cmax
measured = [
    ("C/C(=C\\c1csc(C)n1)C1C[C@@H]2O[C@]2(C)CCC[C@H](C)[C@H](O)[C@@H](C)C(=O)C(C)(C)[C@@H](O)CC(=O)N1 (relative stereo)", "142 ng/mL"),
]
